Target: T1, human hepcidin (mature, 25 amino acids) (human, mono-biotinylated in the ELISAs and on the KinExA beads (site not stated); unlabelled in solution and on the BIAcore chip)
T1 construct: the form is named in each assay field; also called rhuHepc; rhHepc
T1 peptide: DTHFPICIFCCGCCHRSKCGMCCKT
Experiment: ELISA, mono-biotinylated human hepcidin on Neutravidin plate, pH 6.0 against pH 7.4
readoutKind: fold increase in EC50 as the pH was lowered to 6.0

>  <binder>
15E1 W52H (antibody, V domains shown, Histidine mutant of 15E1, transiently expressed in 293-6E cells; constant regions as in wild-type 15E1; also called W52H (heavy chain)) VH: QVQLVESGGGVVQPGRSLRLSCAASGFTFSSYGMHWVRQAPGKGLEWVAVIHYAESNKYYADSVKGRFTISRDNSKNTLYLQMNSLRAEDTAVYYCARAQEGIAPDAFDIWGQGTMVTVSS VL: SYELTQPPSVSVSPGQTATITCSGDKLGERYACWYQQRPGQSPVLVIYQDSKRPSGIPERFSGSNSGNTATLTISGTQAMDEADYFCQAWYSSTNVLFGGGTKLTVL

>  <recordedValue>
≥ 1.5 fold

$$$$
>  <binder>
15E1 N57H A107H (antibody, V domains shown, Double histidine mutant of 15E1; constant regions as in wild-type 15E1; also called A107H (heavy chain)/N57H (heavy chain)) VH: QVQLVESGGGVVQPGRSLRLSCAASGFTFSSYGMHWVRQAPGKGLEWVAVIWYAESHKYYADSVKGRFTISRDNSKNTLYLQMNSLRAEDTAVYYCARAQEGIAPDHFDIWGQGTMVTVSS VL: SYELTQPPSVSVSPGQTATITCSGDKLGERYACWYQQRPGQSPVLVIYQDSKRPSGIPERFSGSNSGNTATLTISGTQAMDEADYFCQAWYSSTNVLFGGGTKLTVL

>  <recordedValue>
≥ 5.5 fold

$$$$
>  <binder>
15E1 A99H A107H (antibody, V domains shown, Double histidine mutant of 15E1; constant regions as in wild-type 15E1; also called A107H (heavy chain)/A99H (heavy chain)) VH: QVQLVESGGGVVQPGRSLRLSCAASGFTFSSYGMHWVRQAPGKGLEWVAVIWYAESNKYYADSVKGRFTISRDNSKNTLYLQMNSLRAEDTAVYYCARHQEGIAPDHFDIWGQGTMVTVSS VL: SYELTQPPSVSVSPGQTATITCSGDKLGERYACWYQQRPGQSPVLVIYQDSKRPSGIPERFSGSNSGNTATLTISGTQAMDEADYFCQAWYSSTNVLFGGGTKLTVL

>  <recordedValue>
≥ 5.5 fold

$$$$
>  <binder>
15E1 L27H (antibody, V domains shown, Histidine mutant of 15E1, transiently expressed in 293-6E cells; constant regions as in wild-type 15E1; also called L27H (light chain)) VH: QVQLVESGGGVVQPGRSLRLSCAASGFTFSSYGMHWVRQAPGKGLEWVAVIWYAESNKYYADSVKGRFTISRDNSKNTLYLQMNSLRAEDTAVYYCARAQEGIAPDAFDIWGQGTMVTVSS VL: SYELTQPPSVSVSPGQTATITCSGDKHGERYACWYQQRPGQSPVLVIYQDSKRPSGIPERFSGSNSGNTATLTISGTQAMDEADYFCQAWYSSTNVLFGGGTKLTVL

>  <recordedValue>
≥ 1.5 fold

$$$$
>  <binder>
15E1 A107H A89H (antibody, V domains shown, Double histidine mutant of 15E1 (one change in each chain); constant regions as in wild-type 15E1; also called A107H (heavy chain)/A89H (light chain)) VH: QVQLVESGGGVVQPGRSLRLSCAASGFTFSSYGMHWVRQAPGKGLEWVAVIWYAESNKYYADSVKGRFTISRDNSKNTLYLQMNSLRAEDTAVYYCARAQEGIAPDHFDIWGQGTMVTVSS VL: SYELTQPPSVSVSPGQTATITCSGDKLGERYACWYQQRPGQSPVLVIYQDSKRPSGIPERFSGSNSGNTATLTISGTQAMDEADYFCQHWYSSTNVLFGGGTKLTVL

>  <recordedValue>
≥ 5.5 fold

$$$$
>  <binder>
15E1 A89H (antibody, V domains shown, Histidine mutant of 15E1, transiently expressed in 293-6E cells; constant regions as in wild-type 15E1; also called A89H (light chain)) VH: QVQLVESGGGVVQPGRSLRLSCAASGFTFSSYGMHWVRQAPGKGLEWVAVIWYAESNKYYADSVKGRFTISRDNSKNTLYLQMNSLRAEDTAVYYCARAQEGIAPDAFDIWGQGTMVTVSS VL: SYELTQPPSVSVSPGQTATITCSGDKLGERYACWYQQRPGQSPVLVIYQDSKRPSGIPERFSGSNSGNTATLTISGTQAMDEADYFCQHWYSSTNVLFGGGTKLTVL

>  <recordedValue>
≥ 1.5 fold

$$$$
>  <binder>
15E1 A107H L27H (antibody, V domains shown, Double histidine mutant of 15E1 (one change in each chain); constant regions as in wild-type 15E1; also called A107H (heavy chain)/L27H (light chain)) VH: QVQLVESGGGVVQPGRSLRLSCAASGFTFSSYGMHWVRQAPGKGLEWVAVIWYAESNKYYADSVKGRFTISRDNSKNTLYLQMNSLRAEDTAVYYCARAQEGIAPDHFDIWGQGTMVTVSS VL: SYELTQPPSVSVSPGQTATITCSGDKHGERYACWYQQRPGQSPVLVIYQDSKRPSGIPERFSGSNSGNTATLTISGTQAMDEADYFCQAWYSSTNVLFGGGTKLTVL

>  <recordedValue>
≥ 5.5 fold

$$$$

Where do the numbers come from? From patent US20110150888A1.
